species: Rattus norvegicus; experiment: Open TG-GATES - Regimen: Daily Repeat; assay type: toxicity, organism-based, Sprague-Dawley; design: regimen Daily Repeat, gender Male, age 6 weeks; details: in vivo, po, 0 mg/kg, 72 h, tissue Plasma, route gavage, dose level Control, time 3 day
Metric Name: AST (IU/L)
Only the number, expressed in IU/L, is required.

Example compounds with recorded AST:
# Compound, AST, IU/L
records = [
    ("CC(=O)N1CCN(c2ccc(OCC3COC(Cn4ccnc4)(c4ccc(Cl)cc4Cl)O3)cc2)CC1 (stereo not drawn) [KETOCONAZOLE]", 68),
    ("CC(=O)Nc1ccc2c(c1)Cc1ccccc1-2 [2-ACETYLAMINOFLUORENE]", 73.2),
    ("CC[C@@H](CO)NCCN[C@@H](CC)CO [ETHAMBUTOL]", 68.6),
]

Respond only with AST recorded for CC(CCc1ccccc1)NCC(O)c1ccc(O)c(C(N)=O)c1 (stereo not drawn) [LABETALOL]
70

# return recorded AST for entry CCN(CC)N=O [N-NITROSODIETHYLAMINE]
67

Give AST for the following compound: CC(N)=O [ACETAMIDE]
71.6

Determine from records and report AST for O=C(O)COc1nn(Cc2ccccc2)c2ccccc12 [BENDAZAC]
68.6

Report measured AST; entry is CC(C)Cc1ccc(C(C)C(=O)O)cc1 (stereo not drawn) [IBUPROFEN]
76.6

---

organism: Rattus norvegicus; assay: Open TG-GATES - Regimen: Single; format: toxicity, organism-based, Sprague-Dawley; set-up: regimen Single, gender Male, age 6 weeks; settings: in vivo, po, 0 mg/kg, 9 h, tissue Plasma, route gavage, dose level Control
Where TBIL equals or exceeds 0.05 mg/dL, the correct label is 1; where it does not, the label is 0.

These solved cases illustrate the format of a correct answer.
# Compound, Class Assignment
rows = [
    ("CCN(CC)N=O", 1),
    ("CC(CCc1ccccc1)NCC(O)c1ccc(O)c(C(N)=O)c1 (configuration not stated)", 0),
]

Check the entry O=C(O)COc1nn(Cc2ccccc2)c2ccccc12 : does TBIL equal or exceed 0.05 mg/dL?
1

Form field: TBIL at least 0.05 mg/dL? Entry: CC(=O)Nc1ccc2c(c1)Cc1ccccc1-2
1

---

organism: Rattus norvegicus; experiment: Open TG-GATES - Regimen: Single; format: toxicity, organism-based, Sprague-Dawley; parameters: regimen Single, gender Male, age 6 weeks; settings: in vivo, po, 0 mg/kg, 6 h, tissue Plasma, route gavage, dose level Control
TG by entry:
The reply should contain only the number, in mg/dL.

Record excerpt, results attached:
# Compound, Unit Annotation, TG
data = [
    ("CC(=O)Nc1ccc2c(c1)Cc1ccccc1-2 [2-ACETYLAMINOFLUORENE]", "mg/dL", 89.8),
    ("CC[C@@H](CO)NCCN[C@@H](CC)CO [ETHAMBUTOL]", "mg/dL", 82.8),
    ("CC(=O)N1CCN(c2ccc(OCC3COC(Cn4ccnc4)(c4ccc(Cl)cc4Cl)O3)cc2)CC1 (configuration not stated) [KETOCONAZOLE]", "mg/dL", 47.6),
    ("CCN(CC)N=O [N-NITROSODIETHYLAMINE]", "mg/dL", 54.4),
    ("CC(CCc1ccccc1)NCC(O)c1ccc(O)c(C(N)=O)c1 (configuration not stated) [LABETALOL]", "mg/dL", 41.8),
]

Could you please provide reported TG for CC(C)Cc1ccc(C(C)C(=O)O)cc1 (configuration not stated) [IBUPROFEN] ? Thanks!
69.8

Tell us which TG value is on record for O=C(O)COc1nn(Cc2ccccc2)c2ccccc12 [BENDAZAC]
75.8

---

organism: Rattus norvegicus; assay: Open TG-GATES - Regimen: Daily Repeat; type: toxicity, organism-based, Sprague-Dawley; parameters: regimen Daily Repeat, gender Male, age 6 weeks; details: in vivo, po, 0 mg/kg, 72 h, tissue Plasma, route gavage, dose level Control, time 3 day
Metric Name: PL (mg/dL)
Give the number; mg/dL is assumed, so skip it.

# Compound, Metric Name, Readout Number
data = [
    ("O=C(O)COc1nn(Cc2ccccc2)c2ccccc12", "PL", 162.8),
    ("CC(=O)Nc1ccc2c(c1)Cc1ccccc1-2", "PL", 163),
    ("CC(C)Cc1ccc(C(C)C(=O)O)cc1 (stereo not drawn)", "PL", 143.6),
    ("CC(N)=O [ACETAMIDE]", "PL", 162.6),
]

Using the record for CC(CCc1ccccc1)NCC(O)c1ccc(O)c(C(N)=O)c1 (stereo not drawn) , state its measured PL.
158

Provide one value: measured PL of CC(=O)N1CCN(c2ccc(OCC3COC(Cn4ccnc4)(c4ccc(Cl)cc4Cl)O3)cc2)CC1 (stereo not drawn)
142.6

Please give the documented PL of CC[C@@H](CO)NCCN[C@@H](CC)CO
155.6

Please report the measured PL for CCN(CC)N=O
153

---

Known KIDNEY_TOTAL of a selection of compounds
species: Rattus norvegicus; experiment: Open TG-GATES - Regimen: Daily Repeat; assay type: toxicity, organism-based, Sprague-Dawley; parameters: regimen Daily Repeat, gender Male, age 6 weeks; settings: in vivo, po, 0 mg/kg, […], tissue Kidney, route gavage, dose level Control, time 14 day
Field: numeric (g). Do not append units.

# Compound, Unit Annotation, KIDNEY_TOTAL
records = [
    ("CC(=O)Nc1ccc2c(c1)Cc1ccccc1-2", "g", 2.6),
    ("CC[C@@H](CO)NCCN[C@@H](CC)CO", "g", 2.6),
    ("CC(C)Cc1ccc(C(C)C(=O)O)cc1 (stereo not drawn)", "g", 2.4),
    ("CC(CCc1ccccc1)NCC(O)c1ccc(O)c(C(N)=O)c1 (stereo not drawn)", "g", 2.4),
    ("O=C(O)COc1nn(Cc2ccccc2)c2ccccc12", "g", 2.6),
]

In one line, give reported KIDNEY_TOTAL of the entry CCN(CC)N=O .
2.6

Report KIDNEY_TOTAL, nothing else, for this compound: CC(=O)N1CCN(c2ccc(OCC3COC(Cn4ccnc4)(c4ccc(Cl)cc4Cl)O3)cc2)CC1 (stereo not drawn)
2.3

Look up and report measured KIDNEY_TOTAL for this entry: CC(N)=O [ACETAMIDE]
2.6

---

species on record: Rattus norvegicus; test: Open TG-GATES - Regimen: Daily Repeat; format: toxicity, organism-based, Sprague-Dawley; set-up: regimen Daily Repeat, gender Male, age 6 weeks; settings: in vivo, po, 0 mg/kg, 72 h, tissue Plasma, route gavage, dose level Control, time 3 day
Below, each entry is listed with its recorded K.
Give just the number in meq/L; leave the unit off.

Example entries begin here.
# Molecule, K [meq/L]
records = [
    ("CC[C@@H](CO)NCCN[C@@H](CC)CO", 4.4),
    ("CC(C)Cc1ccc(C(C)C(=O)O)cc1 (configuration not stated)", 4.1),
    ("CC(N)=O [ACETAMIDE]", 4.4),
    ("O=C(O)COc1nn(Cc2ccccc2)c2ccccc12", 4.7),
    ("CC(=O)Nc1ccc2c(c1)Cc1ccccc1-2", 4.1),
    ("CC(CCc1ccccc1)NCC(O)c1ccc(O)c(C(N)=O)c1 (configuration not stated)", 4),
]

Moving on to the next molecule.
Return value of K for input CCN(CC)N=O , no commentary.
4

---

species on record: Rattus norvegicus; test: Open TG-GATES - Regimen: Daily Repeat; format: toxicity, organism-based, Sprague-Dawley; design: regimen Daily Repeat, gender Male, age 6 weeks; details: in vivo, po, 0 mg/kg, 72 h, tissue Plasma, route gavage, dose level Control, time 3 day
Rule: TG below 100 mg/dL gives YES, anything at or above gives NO.

Known results for molecules:
# Molecule, Class Assignment
measured = [
    ("CC[C@@H](CO)NCCN[C@@H](CC)CO", "NO"),
    ("CC(C)Cc1ccc(C(C)C(=O)O)cc1 (stereo not drawn)", "YES"),
    ("CC(=O)N1CCN(c2ccc(OCC3COC(Cn4ccnc4)(c4ccc(Cl)cc4Cl)O3)cc2)CC1 (stereo not drawn)", "YES"),
    ("CC(CCc1ccccc1)NCC(O)c1ccc(O)c(C(N)=O)c1 (stereo not drawn)", "NO"),
    ("O=C(O)COc1nn(Cc2ccccc2)c2ccccc12", "NO"),
]

I wonder whether CC(=O)Nc1ccc2c(c1)Cc1ccccc1-2 has TG below 100 mg/dL. Can you tell?
NO

Regarding CCN(CC)N=O , kindly confirm whether its TG is beneath 100 mg/dL.
YES

is_below(TG, 100 mg/dL) for CC(N)=O [ACETAMIDE] ?
NO

---

species: Rattus norvegicus; assay: Open TG-GATES - Regimen: Single; type: toxicity, organism-based, Sprague-Dawley; set-up: regimen Single, gender Male, age 6 weeks; details: in vivo, po, 0 mg/kg, 9 h, tissue Kidney, route gavage, dose level Control
Metric Name: KIDNEY_TOTAL (g)
Give the value, in units of g, as a plain number.

Below, 5 compounds whose answers are already recorded.
# Compound, Unit Annotation, KIDNEY_TOTAL
data = [
    ("CCN(CC)N=O [N-NITROSODIETHYLAMINE]", "g", 1.9),
    ("CC(C)Cc1ccc(C(C)C(=O)O)cc1 (configuration not stated) [IBUPROFEN]", "g", 1.8),
    ("CC(CCc1ccccc1)NCC(O)c1ccc(O)c(C(N)=O)c1 (configuration not stated) [LABETALOL]", "g", 1.8),
    ("CC(=O)Nc1ccc2c(c1)Cc1ccccc1-2 [2-ACETYLAMINOFLUORENE]", "g", 1.9),
    ("O=C(O)COc1nn(Cc2ccccc2)c2ccccc12 [BENDAZAC]", "g", 2),
]

Using the record for CC(=O)N1CCN(c2ccc(OCC3COC(Cn4ccnc4)(c4ccc(Cl)cc4Cl)O3)cc2)CC1 (configuration not stated) [KETOCONAZOLE] , state its measured KIDNEY_TOTAL.
1.9

Specify measured KIDNEY_TOTAL for CC[C@@H](CO)NCCN[C@@H](CC)CO [ETHAMBUTOL] .
2
